# target: IL-17A/A (Homo sapiens, UniProt Q16552)
# Sequence (Q16552 24-155): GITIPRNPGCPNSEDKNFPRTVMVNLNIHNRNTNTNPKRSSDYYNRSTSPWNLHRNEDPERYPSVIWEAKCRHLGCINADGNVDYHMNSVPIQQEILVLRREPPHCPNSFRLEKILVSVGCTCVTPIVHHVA
# test description: HEK-Blue IL-17A/A inhibition assay (SEAP reporter)
# cond: HEK-Blue cells (HEK 293 expressing IL-17RA, IL-17RC, Act1); IL-17A/A stimulation; 20 hours; SEAP read at A630; 4-parameter fit
pIC50: −log10 of the molar value.
reported property: pIC50

// known answers, use as guide
CC(C)n1nccc1C(=O)N[C@H](C(=O)Nc1ccc([C@H](C)C(=O)N2CC3(C2)CC(F)(F)C3)cc1F)C(C1CC1)C1CC1 | < 6.00
CC(=O)Nc1cc(NC(=O)[C@@H](NC(=O)c2ccnn2C(C)C)C(C2CC2)C2CC2)c(F)cc1C(C)C(=O)NCC(F)(F)F (single isomer, unassigned) | > 7.00
CCn1nccc1C(=O)N[C@H](C(=O)Nc1ccc([C@H](C)C(=O)N(C)CC(F)(F)F)cc1F)[C@@H]1CCc2ccccc21 | < 6.00

What does the record list as pIC50 for Cc1c(F)c(NC(=O)[C@@H](NC(=O)c2conc2C2CC2)C(C2CC2)C2CC2)cc(C(F)(F)F)c1C(C)C(=O)NCC(F)(F)F (stereo partly drawn) ?
< 6.00

Fill in the blank: the reported pIC50 of "CCn1nccc1C(=O)N[C@H](C(=O)Nc1ccc([C@H](C)C(=O)NCC(F)(F)F)cc1F)C(C1CCC1)C1CCC1" is ____.
6.00 to 7.00

What pIC50 value was documented for this molecule, CCn1nccc1C(=O)N[C@H](C(=O)Nc1cc(C)c(C(C)C(=O)N(C)CC(F)(F)F)cc1F)[C@H]1CC[C@H](C)CC1 (stereo partly drawn) ?
> 7.00

Look up pIC50: CC(C(=O)NCC(F)(F)F)c1cc(F)c(NC(=O)[C@@H](NC(=O)c2ccnn2C(C)C)C(C2CC2)C2CC2)cc1N1CCCC1 (stereo partly drawn)
> 7.00

What pIC50 value was documented for this molecule, CC(C)n1nccc1C(=O)N[C@H](C(=O)Nc1ccc([C@H](C)C(=O)NC2CNCC2(F)F)cc1F)C(C1CC1)C1CC1 (single isomer, unassigned) [Compound 133] ?
< 6.00

Can you look up the measured pIC50 of CC(C)n1nccc1C(=O)N[C@H](C(=O)Nc1ccc([C@H](C)C(=O)N2CCOCC2C(F)(F)F)cc1F)C(C1CC1)C1CC1 (single isomer, unassigned) [Compound 19] for me?
6.00 to 7.00

Please give the measured pIC50 for this molecule: CCNC(=O)C(C)c1cc(F)c(NC(=O)[C@@H](NC(=O)c2ccnn2CC)C(C2CC2)C2CC2)cc1C (stereo partly drawn)
< 6.00

Which pIC50 value is on record for "CCn1nccc1C(=O)N[C@H](C(=O)Nc1ccc([C@H](C)C(=O)N2CC(F)(F)C2)cc1F)C(C1CC1)C1CC1" ?
6.00 to 7.00

Tell me the measured pIC50 of CCn1nccc1C(=O)N[C@H](C(=O)Nc1ccc(C(C)C(=O)N2CCC(C(F)(F)F)C2)cc1F)C(C1CC1)C1CC1 (stereo partly drawn) , please.
6.00 to 7.00

# input molecule: Cc1cc(NC(=O)[C@@H](NC(=O)c2nonc2C)C(C2CC2)C2CC2)c(F)cc1C(C)C(=O)NCC(F)(F)F (stereo partly drawn) ; wanted: its pIC50
6.00 to 7.00
